- protocol-description: Human HepG2 cell viability assay in 384 well format
- Format: toxicity, cell-based
- Parameters: dose 125 nL, time 70.5 hour; concentration not given beside the values
- test-conditions: HepG2 cells, read-out: Inhibition
property: cytotoxicity at 70.5 h (%)
Report the value in % with no unit label.

Example entries and their recorded answers appear below.
Cc1nn(C)c2c(NCc3ccncc3)nc(C3CC3)nc12 = 3.06
CCS(=O)(=O)NCCNc1c(C#N)cnc2c(C)cc(F)cc12 = 2.54

Incoming: Hello, please tell me recorded cytotoxicity at 70.5 h for this one: `CCSCCN1CCCN(S(C)(=O)=O)CC1`
Outgoing: -2.21

Incoming: # return recorded cytotoxicity at 70.5 h for input `CSCc1noc(CNC(=O)c2cc(C)c(C)[nH]c2=O)n1`
Outgoing: -5.2

Incoming: Give the reported cytotoxicity at 70.5 h for this compound. Cc1nccn1-c1cc(CNC(=O)CCC2CCCO2)ccn1 (stereo unspecified)
Outgoing: 43.5

Incoming: Using known records, supply cytotoxicity at 70.5 h for `CCNc1nnc(CCn2nc(C)c(Br)c2C)s1`
Outgoing: -7.99

* * *

Reported cytotoxicity at 70.5 h values for a set of compounds
- protocol-description: Human HepG2 cell viability assay in 384 well format
- Type: toxicity, cell-based
- Set-up: dose 125 nL, time 70.5 hour; concentration not given beside the values
- test-conditions: HepG2 cells, read-out: Inhibition
Just the number please, in %, no unit attached.

Reference set (5 entries):
COCC(=O)NC[C@H]1CC[C@H](c2nnc(-c3ccncc3)o2)CC1 = 15.8
CC(=O)c1c(F)cccc1NCC(O)C1CC1 (stereo unspecified) = -19.1
CCC(Nc1cccc(OC)c1)C(=O)NCc1ccc2[nH]c(=O)[nH]c2c1 (stereo unspecified) = -11.6
CN(CCCn1cnc2c(N)ncnc21)Cc1ccccc1 = -4.43
O=C(O)c1c(-c2ccncc2)ncc2c1CCN(C1CCOC1)C2 (stereo unspecified) = -9.17

Read the next record carefully.
Incoming: Please look at this compound and report its cytotoxicity at 70.5 h: CC(CN1CCCC1=O)NC(=O)Nc1cccnc1-n1cccn1 (stereo unspecified)
Outgoing: 35.4

* * *

- protocol-description: Human HepG2 cell viability assay in 384 well format
- Type: toxicity, cell-based
- Design: dose 125 nL, time 70.5 hour; concentration not given beside the values
- test-conditions: HepG2 cells, read-out: Inhibition
property: cytotoxicity at 70.5 h (%)
Report only the number, with the unit % understood.

Here are 2 molecules together with their reported answers.
CCCc1nnc(N2CCC(N3CCCC(O)C3)CC2)o1 (stereo not drawn) = 7.96
CCN(CC)c1ccc(NC(=O)NCC2CCOC2)cn1 (stereo not drawn) = -12.2

Incoming: Hello, please tell me recorded cytotoxicity at 70.5 h for this one: CCc1nnc(SC2CCCN(c3cnn(C)c3)C2=O)n1C (stereo not drawn)
Outgoing: -12.6

* * *

- protocol-description: Human HepG2 cell viability assay in 384 well format
- Type: toxicity, cell-based
- Set-up: dose 125 nL, time 70.5 hour; concentration not given beside the values
- test-conditions: HepG2 cells, read-out: Inhibition
property: cytotoxicity at 70.5 h (%)
Kindly provide the numeric value in % only, without the unit symbol.

CCc1cc(O)n2nc(C3CCN(C(=O)c4ccncc4)CC3)cc2n1 = 20.6
CN(C)C(=O)CNC(=O)c1nc(C2CC2)n(-c2ccccc2Cl)n1 = -13.7
CC1CN(CCOc2ccccc2C#N)CCN1Cc1nccn1C (stereo unspecified) = -12.6
COc1ccccc1-c1ncc(CN2C[C@@H](N(C)C)[C@H](C(C)C)C2)s1 = -5.83
CC1(C)COCCN1C(=O)CCc1nc(-c2ccccn2)no1 = -18.1

Incoming: Consider the molecule `CCN(C(=O)COc1nc(Cc2ccc(F)cc2)no1)C1CC1` and give its recorded cytotoxicity at 70.5 h.
Outgoing: -5.41

Incoming: Please look at this molecule and report its cytotoxicity at 70.5 h: `Cc1ncsc1C(=O)NC1CCN(CCC(N)=O)CC1`
Outgoing: -21.4

Incoming: Supply cytotoxicity at 70.5 h value. Item: Cc1ccc(CN(C)C(=O)CN2CCOC(Cn3cccn3)C2)o1 (stereo unspecified)
Outgoing: -3.39

Incoming: Fill in cytotoxicity at 70.5 h for record `O=C(c1cnc(NCc2sccc2Br)c(Cl)c1)N1CCCCC1`
Outgoing: -9.35

Incoming: Determine from records and report cytotoxicity at 70.5 h for Fc1cnc(N2CCCC3(CCN(Cc4nccs4)C3)C2)nc1 (stereo unspecified)
Outgoing: 15

Incoming: Annotate the molecule `CN(Cc1ccc(F)c(F)c1)Cc1cc2c(cc1Br)OCCO2` with its measured cytotoxicity at 70.5 h.
Outgoing: -8.74

Recorded values, source ChEMBL document CHEMBL3507680.
